B1: VTI1B (parent)
chain: NKLLLSIIILLELAILGGLVYYKF

- Variants of: B1
- protocol: protein stability index of a GFP-peptide fusion (GPS, HEK-293T) (PSI 1-6); higher = more stable;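 further: lentivirally expressed fusions sorted by FACS into six bins by GFP to DsRed ratio, PSI derived from sequencing read proportions per bin multiplied by bin number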
- condition-parameters: c terminus: a fixed tail appended
quantity: protein stability index

I am curious: what protein stability index value has been reported for NKLLLSIIILLELAILGGLVYYIF [K23I] ?
2.95

Similarly, NKLLLSIIILLELASLGGLVYYKF [I15S] ?
3

Similarly, IKLLLSIIILLELAILGGLVYYKF [N1I] ?
2.97

Similarly, AKLLLSIIILLELAILGGLVYYKF [N1A] ?
3.04

Similarly, NKTLLSIIILLELAILGGLVYYKF [L3T] ?
2.98
